What EC50 was measured for each of the following?
biological target: SST2 (Homo sapiens); construct: host or cells: PathHunter CHO-K1 SST2 cells; test: PathHunter CHO-K1 SST2 Internalization Assay; assay type: cell-based; conditions: PathHunter CHO-K1 SST2 cells; 90 min at 37 C; luminescence; read-out: Internalization EC50
Please make sure the unit comes right after the number.

**Q:** Item under review: CC[C@H](C)[C@@H]([C@@H](CC(=O)N1CCC[C@H]1[C@H](OC)[C@@H](C)C(=O)N[C@H](C)[C@@H](O)c1ccccc1)OC)N(C)C(=O)[C@@H](NC(=O)C(C(C)C)N(C)C(=O)OCc1ccc(NC(=O)[C@H](CCCNC(N)=O)NC(=O)[C@@H](NC(=O)CCOCCC(=O)NCCNc2ncc(-c3cc(C)cc(F)c3)c(N3CCC(N)CC3)c2-c2nc3ccc(Cl)cc3[nH]2)C(C)C)c(O[C@@H]2O[C@H](C(=O)N3CCCCC3)[C@@H](O)[C@H](O)[C@H]2O)c1)C(C)C (some centres unmarked) . Reported EC50?
**A:** 10 nM

**Q:** # repeat for `CC[C@H](C)[C@@H]([C@@H](CC(=O)N1CCC[C@H]1[C@H](OC)[C@@H](C)C(=O)N[C@H](C)[C@@H](O)c1ccccc1)OC)N(C)C(=O)[C@@H](NC(=O)[C@H](C(C)C)N(C)C(=O)OCc1ccc(NC(=O)[C@H](CCCNC(N)=O)NC(=O)[C@@H](NC(=O)CCOCCC(=O)N(C)CC(=O)NCCNc2ncc(-c3cc(C)cc(F)c3)c(N3CCC(N)CC3)c2-c2nc3ccc(Cl)cc3[nH]2)C(C)C)c(OCC(N)=O)c1)C(C)C`
**A:** 7.6 nM

---

Exercise: for every item that follows, state its recorded EC50.
biological target: human somatostatin receptor subtype 2 (Homo sapiens, UniProt P30874); construct: expressed in transfected cells; assay: Functional assay for SSTR2 agonists (HTRF cAMP); format: cell-based; settings: CHO-K1 cells stably expressing human SST2; NKH477-stimulated cAMP; 20 min at 37 C; read-out: hSST2 cAMP Avg EC50
Sequence (P30874 whole entry): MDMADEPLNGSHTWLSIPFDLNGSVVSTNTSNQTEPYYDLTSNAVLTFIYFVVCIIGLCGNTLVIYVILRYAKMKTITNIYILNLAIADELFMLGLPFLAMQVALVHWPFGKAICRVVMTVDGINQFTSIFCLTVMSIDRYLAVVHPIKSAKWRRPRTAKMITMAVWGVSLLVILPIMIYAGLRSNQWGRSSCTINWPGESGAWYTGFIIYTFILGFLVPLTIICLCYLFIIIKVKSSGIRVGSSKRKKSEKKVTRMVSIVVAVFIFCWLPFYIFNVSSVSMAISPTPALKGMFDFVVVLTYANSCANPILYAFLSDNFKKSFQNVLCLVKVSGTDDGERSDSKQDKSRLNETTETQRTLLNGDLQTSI
Answer with a number only, understood to be in pM.

**Q:** Look at this compound and give its reported EC50. CC[C@H](C)[C@@H]([C@@H](CC(=O)N1CCC[C@H]1[C@H](OC)[C@@H](C)C(=O)N[C@H](C)[C@@H](O)c1ccccc1)OC)N(C)C(=O)[C@@H](NC(=O)[C@H](C(C)C)N(C)C(=O)OCc1ccc(NC(=O)[C@H](CCCNC(N)=O)NC(=O)[C@@H](NC(=O)CCOCCOCCOCCOCCC(=O)NCCNc2ncc(-c3cc(C)cc(F)c3)c(N3CCC(N)CC3)c2-c2nc3ccc(Cl)cc3[nH]2)C(C)C)cc1C(=O)N1CC(N)C1)C(C)C [Compound 59]
**A:** 250

**Q:** Field entry: CC[C@H](C)[C@@H]([C@@H](CC(=O)N1CCC[C@H]1[C@H](OC)[C@@H](C)C(=O)N[C@H](C)[C@@H](O)c1ccccc1)OC)N(C)C(=O)[C@@H](NC(=O)[C@H](C(C)C)N(C)C(=O)OCc1ccc(NC(=O)[C@H](C)NC(=O)[C@@H](NC(=O)C[C@@H](N)C(=O)NCCOCCOCCC(=O)NCCNc2ncc(-c3cc(C)cc(F)c3)c(N3CCC(N)CC3)c2-c2nc3ccc(Cl)cc3[nH]2)C(C)C)c(O[C@@H]2O[C@H](C(=O)O)[C@@H](O)[C@H](O)[C@H]2O)c1)C(C)C [Compound 136]
**A:** 290

---

target: SST2 (Homo sapiens, UniProt P30874); construct: host or cells: PathHunter CHO-K1 SST2 cells; experiment: PathHunter CHO-K1 SST2 Internalization Assay; assay type: cell-based; settings: PathHunter CHO-K1 SST2 cells; 90 min at 37 C; luminescence; read-out: Internalization EC50
Sequence (P30874 whole entry): as above
readout.kind: pEC50
The meaning of pEC50 here: minus log10 of the concentration in molar units.

**Q:** So what's the measured pEC50 for this one? CC[C@H](C)[C@@H]([C@@H](CC(=O)N1CCC[C@H]1[C@H](OC)[C@@H](C)C(=O)N[C@H](C)[C@@H](O)c1ccccc1)OC)N(C)C(=O)[C@@H](NC(=O)[C@H](C(C)C)N(C)C(=O)OCc1ccc(NC(=O)[C@H](CCCNC(N)=O)NC(=O)[C@@H](NC(=O)c2cc(NC(=O)CCOCCn3cc(CCC(=O)NCCNc4ncc(-c5cc(C)cc(F)c5)c(N5CCC(N)CC5)c4-c4nc5ccc(Cl)cc5[nH]4)nn3)cc(C(=O)NCC(=O)O)c2)C(C)C)cc1)C(C)C [Compound 155]
**A:** 8.00

**Q:** And for CC[C@H](C)[C@@H]([C@@H](CC(=O)N1CCC[C@H]1[C@H](OC)[C@@H](C)C(=O)N[C@H](C)[C@@H](O)c1ccccc1)OC)N(C)C(=O)[C@@H](NC(=O)[C@H](C(C)C)N(C)C(=O)OCc1ccc(NC(=O)[C@H](C)NC(=O)[C@@H](NC(=O)CCOCCOCCOCCOCCC(=O)NCCNc2ncc(-c3cc(C)cc(F)c3)c(N3CCC(N)CC3)c2-c2cc3ccc(Cl)cc3[nH]2)C(C)C)c(O[C@@H]2O[C@H](C(=O)O)[C@@H](O)[C@H](O)[C@H]2O)c1)C(C)C [Compound 112] ?
**A:** 8.08

**Q:** For CC[C@H](C)[C@@H]([C@@H](CC(=O)N1CCC[C@H]1[C@H](OC)[C@@H](C)C(=O)N[C@H](C)[C@@H](O)c1ccccc1)OC)N(C)C(=O)[C@@H](NC(=O)[C@H](C(C)C)N(C)C(=O)OCc1ccc(NC(=O)[C@H](CCCNC(N)=O)NC(=O)[C@@H](NC(=O)CCOCCOCCOCCOCCC(=O)NCCCNc2ncc(-c3cc(C)cc(F)c3)c(N3CCC(N)CC3)c2-c2nc3ccc(Cl)cc3[nH]2)C(C)C)cc1)C(C)C [Compound 197] then?
**A:** 8.19

**Q:** Repeat with CC[C@H](C)[C@@H]([C@@H](CC(=O)N1CCC[C@H]1[C@H](OC)[C@@H](C)C(=O)N[C@H](C)[C@@H](O)c1ccccc1)OC)N(C)C(=O)[C@@H](NC(=O)[C@H](C(C)C)N(C)C(=O)OCc1ccc(NC(=O)[C@H](CCCNC(N)=O)NC(=O)[C@@H](NC(=O)C[C@@H](N)C(=O)NCCOCCC(=O)NCCNc2ncc(-c3cc(C)cc(F)c3)c(N3CCC(N)CC3)c2-c2nc3ccc(Cl)cc3[nH]2)C(C)C)c(OCC(=O)O)c1)C(C)C [Compound 22]
**A:** 7.77

---

molecular target: SST2 (Homo sapiens, UniProt P30874); construct: host or cells: PathHunter CHO-K1 SST2 cells; assay: PathHunter CHO-K1 SST2 Internalization Assay; assay type: cell-based; conditions: PathHunter CHO-K1 SST2 cells; 90 min at 37 C; luminescence; read-out: Internalization EC50
Assign pEC50 to each entry below.
// pEC50 here means minus log10 of the molar concentration (mol/L)

**Q:** Recorded pEC50 of CC[C@H](C)[C@@H]([C@@H](CC(=O)N1CCC[C@H]1[C@H](OC)[C@@H](C)C(=O)N[C@H](C)[C@@H](O)c1ccccc1)OC)N(C)C(=O)[C@@H](NC(=O)[C@H](C(C)C)N(C)C(=O)OCc1ccc(NC(=O)[C@H](CCCNC(N)=O)NC(=O)[C@@H](NC(=O)CCOCCC(=O)NCCNc2ncc(-c3cc(C)cc(F)c3)c(N3CCC(N)CC3)c2-c2nc3ccc(Cl)cc3[nH]2)C(C)C)c(O[C@@H]2O[C@H](C(=O)NCC(=O)NCCCCCCO[PH](=O)OC3CCC(c4ccccc4)(c4ccccc4)CC3)[C@@H](O)[C@H](O)[C@H]2O)c1)C(C)C (stereo partly shown) , please.
**A:** 8.18

**Q:** Now give it for `CC[C@H](C)[C@@H]([C@@H](CC(=O)N1CCC[C@H]1[C@H](OC)[C@@H](C)C(=O)N[C@H](C)[C@@H](O)c1ccccc1)OC)N(C)C(=O)[C@@H](NC(=O)[C@H](C(C)C)N(C)C(=O)OCc1ccc(NC(=O)[C@H](CCCNC(N)=O)NC(=O)[C@@H](NC(=O)c2cc(NCCCC(=O)N(C)CC(=O)NCCNc3ncc(-c4cc(C)cc(F)c4)c(N4CCC(N)CC4)c3-c3nc4ccc(Cl)cc4[nH]3)cc(C(=O)NC[C@@H](N)C(=O)O)c2)C(C)C)cc1)C(C)C` too.
**A:** 8.20

**Q:** Similarly, `CC[C@H](C)[C@@H]([C@@H](CC(=O)N1CCC[C@H]1[C@H](OC)[C@@H](C)C(=O)N[C@H](C)[C@@H](O)c1ccccc1)OC)N(C)C(=O)[C@@H](NC(=O)[C@H](C(C)C)N(C)C(=O)OCc1ccc(NC(=O)[C@H](C)NC(=O)[C@@H](NC(=O)CCOCCC(=O)NCCNc2ncc(-c3cc(C)cc(F)c3)c(N3CCC(N)CC3)c2-c2cc3ccc(C#N)cc3[nH]2)C(C)C)c(O[C@@H]2O[C@H](C(=O)O)[C@@H](O)[C@H](O)[C@H]2O)c1)C(C)C` ?
**A:** 7.96

**Q:** Again, but for `CC[C@H](C)[C@@H]([C@@H](CC(=O)N1CCC[C@H]1[C@H](OC)[C@@H](C)C(=O)N[C@H](C)[C@@H](O)c1ccccc1)OC)N(C)C(=O)[C@@H](NC(=O)[C@H](C(C)C)N(C)C(=O)OCc1ccc(NC(=O)[C@H](C)NC(=O)[C@@H](NC(=O)CCOCCC(=O)NCCNc2ncc(-c3cc(C)cc(F)c3)c(N3CCC(N)CC3)c2-c2cc3ccc(Cl)cc3[nH]2)C(C)C)c(O[C@@H]2O[C@H](C(=O)O)[C@@H](O)[C@H](O)[C@H]2O)c1)C(C)C`
**A:** 8.23
